SUBJECT_OF_TEST: Tyrosine-protein kinase BTK (Homo sapiens, UniProt Q06187)
Sequence (Q06187 whole entry, the tested form may be a part): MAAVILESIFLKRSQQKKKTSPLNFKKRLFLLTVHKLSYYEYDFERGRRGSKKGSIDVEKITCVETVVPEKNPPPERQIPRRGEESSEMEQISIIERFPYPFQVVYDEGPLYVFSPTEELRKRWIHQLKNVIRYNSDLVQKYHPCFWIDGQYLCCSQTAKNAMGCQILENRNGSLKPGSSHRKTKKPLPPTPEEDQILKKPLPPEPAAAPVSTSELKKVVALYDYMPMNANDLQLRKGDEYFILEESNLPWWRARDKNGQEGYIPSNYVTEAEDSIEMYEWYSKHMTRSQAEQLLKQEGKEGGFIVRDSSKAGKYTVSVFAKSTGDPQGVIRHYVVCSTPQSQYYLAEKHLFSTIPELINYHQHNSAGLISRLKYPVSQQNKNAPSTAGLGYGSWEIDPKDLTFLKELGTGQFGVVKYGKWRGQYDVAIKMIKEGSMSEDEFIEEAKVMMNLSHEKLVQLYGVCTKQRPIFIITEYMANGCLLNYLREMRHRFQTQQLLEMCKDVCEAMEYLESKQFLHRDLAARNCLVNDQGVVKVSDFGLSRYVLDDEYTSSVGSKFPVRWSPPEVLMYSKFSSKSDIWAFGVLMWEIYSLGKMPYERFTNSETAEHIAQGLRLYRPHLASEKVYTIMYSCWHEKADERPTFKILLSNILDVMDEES
ASSAY_DETAILS: Inhibition of recombinant human N-terminal His-tagged BTK expressed in baculovirus infected in Sf9 cells assessed as inhibitory constant incubated for 1 hr by TR-FRET assay
QUANTITY_MEASURED: Ki

Solved cases (2 shown):
COMPOUND: CNC(=O)[C@@H](Cc1ccc(C#N)cc1)NC(=O)[C@@H](NC(=O)[C@@H]1CO1)c1ccccc1
VALUE_OBSERVED: 1930 nM
//
COMPOUND: CNC(=O)[C@@H](Cc1ccc(C#N)cc1)NC(=O)[C@@H](NC(=O)[C@]1(C)CO1)[C@@H](C)OC(C)(C)C
VALUE_OBSERVED: 1250 nM

Moving on to another compound below.
Prompt: Look at this compound and give its reported Ki. CNC(=O)[C@H]1Cc2c([nH]c3ccccc23)CN1C(=O)C[C@@H](Cc1cccc(F)c1)NC(=O)C1CO1 (stereo partly drawn)
Completion: 9270 nM

---

SUBJECT_OF_TEST: Tyrosine-protein kinase BTK (Homo sapiens, UniProt Q06187)
ASSAY_DETAILS: Binding affinity to recombinant human BTK (389 to 659 residues) expressed in insect cells assessed as change in melting temperature at 50 uM incubated for 120 mins by thermal shift assay
QUANTITY_MEASURED: ΔTm
The answer should read as a number with its unit following.

STRUCTURE_STRING: CNC(=O)[C@@H](Cc1ccc(C#N)cc1)NC(=O)[C@@H](NC(=O)[C@@H]1CO1)c1ccccc1
VALUE_OBSERVED: 6.36 °C
//
STRUCTURE_STRING: C=CC(=O)N1CCC[C@H](CC(=O)N2Cc3[nH]c4ccccc4c3C[C@@H]2C(=O)NC)C1
VALUE_OBSERVED: 6.55 °C
//
STRUCTURE_STRING: CNC(=O)[C@H]1Cc2c([nH]c3ccccc23)CN1C(=O)c1occc1CNc1ccc2nccnc2c1
VALUE_OBSERVED: 13.2 °C

Prompt: Tyrosine-protein kinase BTK (Homo sapiens, UniProt Q06187) / ΔTm / CNC(=O)[C@@H](Cc1ccc(C#N)cc1)NC(=O)[C@@H](NC(=O)[C@]1(C)CO1)[C@@H](C)OC(C)(C)C : value?
Completion: 4.51 °C

---

Test system: Tyrosine-protein kinase BTK (Homo sapiens), Q06187 [C481S]
Sequence (Q06187 whole entry C481S, the tested form may be a part): as the sequence (Q06187 whole entry, the tested form may be a part) above, with C481S counted along it
ASSAY_DETAILS: Binding affinity to recombinant human BTK C481S mutant (389 to 659 residues) expressed in insect cells assessed as change in melting temperature at 50 uM incubated for 120 mins by thermal shift assay
QUANTITY_MEASURED: ΔTm (°C)
Numbers only, in °C.

STRUCTURE_STRING: CNC(=O)[C@H]1Cc2c([nH]c3ccccc23)CN1C(=O)c1occc1CNc1ccc2nccnc2c1
ΔTm / °C: 13.4

Give one value of ΔTm per listed compound.
1. CNC(=O)[C@@H](Cc1ccc(C#N)cc1)NC(=O)[C@@H](NC(=O)[C@@H]1CO1)c1ccccc1
2. C=CC(=O)N1CCC[C@H](CC(=O)N2Cc3[nH]c4ccccc4c3C[C@@H]2C(=O)NC)C1

Completion:
1: -0.15; 2: 0.1

Prompt: Look at this compound and give its reported ΔTm. CNC(=O)[C@@H](Cc1ccc(C#N)cc1)NC(=O)[C@@H](NC(=O)[C@]1(C)CO1)[C@@H](C)OC(C)(C)C
Completion: 0.23

---

Tested on: Tyrosine-protein kinase BTK (Homo sapiens), Q06187 [C481S]
ASSAY_DETAILS: Binding affinity to BTK C481S mutant (unknown origin) by mass spectrometry analysis relative to control
Set-up: concentration or dose not given beside the values
Square brackets hold non-standard residues; d marks the D form. Peptide text beside a SMILES is read from it. * marks the point of attachment. Oic = O=C(O)[C@@H]1C[C@@H]2CCCC[C@@H]2N1; Phe(4-CN) = N#Cc1ccc(C[C@H](N)C(=O)O)cc1; Acryloyl = C=CC(=O)*
QUANTITY_MEASURED: Activity (%)
One number for each entry, in %.

Solved cases (3 shown):
COMPOUND: C=CC(=O)N1[C@H](C(=O)N[C@@H](Cc2ccc(C#N)cc2)C(=O)NC)C[C@@H]2CCCC[C@@H]21 (Acryloyl-[Oic]-[Phe(4-CN)]-NHMe)
QUANTITY_MEASURED: Activity
VALUE_OBSERVED: 0
--
COMPOUND: C=CC(=O)N1CCC[C@H](CC(=O)N2Cc3[nH]c4ccccc4c3C[C@@H]2C(=O)NC)C1
QUANTITY_MEASURED: Activity
VALUE_OBSERVED: 0
--
COMPOUND: CNC(=O)[C@@H](Cc1ccc(C#N)cc1)NC(=O)[C@@H](NC(=O)[C@]1(C)CO1)[C@@H](C)OC(C)(C)C
QUANTITY_MEASURED: Activity
VALUE_OBSERVED: 0

Give one value of Activity per listed compound.
1. CNC(=O)[C@H]1Cc2c([nH]c3ccccc23)CN1C(=O)c1occc1CNc1ccc2nccnc2c1
2. CNC(=O)[C@@H](Cc1ccc(C#N)cc1)NC(=O)[C@@H](NC(=O)[C@@H]1CO1)c1ccccc1

Completion:
0
0
